test system: V41 penicillin resistant Staphylococcus; assay: Gradient plate in vitro antibiotic activity (MIC), V41 penicillin resistant Staphylococcus; format: cell-based; conditions: read-out: Minimum Inhibitory Concentration
Task for the reader: assign each of the following compounds its reported MIC.
One number for each entry, in µg/mL.

Some compounds with recorded MIC:
| Compound | Measured On | Unit Abbrev | MIC |
| --- | --- | --- | --- |
| Cn1nnnc1SCC1=C(C(=O)O)N2C(=O)C(NC(=O)C(NC(=O)c3nc4ccccc4[nH]3)c3ccccc3)C2SC1 (stereo not drawn) [B] | V41 penicillin resistant Staphylococcus | µg/mL | 5 |
| Cn1nnnc1SCC1=C(C(=O)O)N2C(=O)C(NC(=O)C(NC(=O)c3nc4ccccc4[nH]3)c3ccc(O)cc3)C2SC1 (stereo not drawn) [C] | V41 penicillin resistant Staphylococcus | µg/mL | 0.9 |

Consider the record given below.
Find the measured MIC of NC(=O)OCC1=C(C(=O)O)N2C(=O)C(NC(=O)C(NC(=O)c3nc4ccccc4[nH]3)c3ccc(O)cc3)C2SC1 (stereo not drawn) [F] and report it.
0.9
